Where these numbers come from: patent US8420657B2

# Tested System: cMet (Homo sapiens)
# Construct: using the recombinant domains of cMet, cKit, ALK and PDGFRalpha kinases
# Sequence (P08581 1078-1345 limits assumed): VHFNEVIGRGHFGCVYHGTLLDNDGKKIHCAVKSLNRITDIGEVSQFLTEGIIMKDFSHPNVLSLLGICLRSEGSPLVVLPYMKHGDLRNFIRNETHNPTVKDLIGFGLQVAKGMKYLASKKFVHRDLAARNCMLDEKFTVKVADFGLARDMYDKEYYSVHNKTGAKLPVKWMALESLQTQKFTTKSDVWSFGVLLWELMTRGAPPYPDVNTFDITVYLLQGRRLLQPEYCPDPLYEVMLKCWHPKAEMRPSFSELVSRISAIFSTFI
# Measurement Protocol: cMet LanthaScreen TR-FRET kinase phosphorylation assay
# Condition Label: recombinant kinase domain
Readout Kind: pIC50
Would you please state pIC50, meaning minus log10 of the concentration in mol/L, as a bare number?

Completed entries (count: 2):
Compound | Experimental Result
OCCN1CCOC[C@@H]1c1ccc(Nc2ncc3ccn(-c4cc(F)c(CN5CCOCC5)c(F)c4)c3n2)cc1 [Example 521] | 5.46
COCc1c(F)cc(-n2ccc3cnc(Nc4ccc(N5CCN(C)CC5)nc4)nc32)cc1F [Example 446] | 5.22

If you can, please state the reported pIC50 value of CN1CCN(C(=O)c2cccc(Nc3ncc4ccn(-c5cc(F)c(CN6CCOCC6)c(F)c5)c4n3)c2)CC1 [Example 203] .
5.16

###

# System: JAK2-dependent nuclear translocation of STAT5-GFP in U-2 OS osteosarcoma cells
# Measurement Protocol: STAT5 nuclear translocation assay (Cellomics), rhEpo stimulated U-2 OS STAT5-GFP cells
# Type: cell-based
# Condition Label: Homo sapiens, U2OS; STAT5 translocation pathway
Records here are stratified by IC50; strata: low (below 10 nM), moderate (10 nM to below 70 nM), high (70 nM or more)

Molecule | Label Value
COCCOc1ccc(Nc2ncc3ccn(-c4cc(F)c(CN5CCOCC5)c(F)c4)c3n2)cn1 | high
CN1CCN(c2ccc(Nc3ncc4ccn(-c5cc(F)c(CN6CCOCC6)c(F)c5)c4n3)cn2)C(=O)C1 | moderate

Class? Entry: `Cc1cc(Nc2ncc3ccn(-c4cc(F)c(CN5CCOCC5)c(F)c4)c3n2)cc(C)c1OCCN1CCOCC1`
low

Determine which band this molecule sits in: `Cc1cc(Nc2ncc3ccn(-c4cc(F)c(CN5CCOCC5)c(F)c4)c3n2)cnc1N1CCNCC(F)(F)C1`
moderate

Field: class (IC50) — entry: `CCN1CCOC[C@@H]1c1ccc(Nc2ncc3ccn(-c4cc(F)c(CN5CCOCC5)c(F)c4)c3n2)cc1`
moderate

For `Fc1cc(-n2ccc3cnc(Nc4ccnc(CN5CCC(F)(F)C5)c4)nc32)cc(F)c1CN1CCOCC1` , which IC50 bin applies?
high

Just checking, what class would you give `O=C1CNCCN1Cc1cc(Nc2ncc3ccn(-c4cc(F)c(CN5CCOCC5)c(F)c4)c3n2)ccn1` here?
high

###

# Tested System: GST-JAK2(808-1132) (Homo sapiens, UniProt O60674)
# Construct: GST-JAK2(808-1132); purchased Invitrogen (Carlsbad, USA) #4288
# Sequence (O60674 808-1132): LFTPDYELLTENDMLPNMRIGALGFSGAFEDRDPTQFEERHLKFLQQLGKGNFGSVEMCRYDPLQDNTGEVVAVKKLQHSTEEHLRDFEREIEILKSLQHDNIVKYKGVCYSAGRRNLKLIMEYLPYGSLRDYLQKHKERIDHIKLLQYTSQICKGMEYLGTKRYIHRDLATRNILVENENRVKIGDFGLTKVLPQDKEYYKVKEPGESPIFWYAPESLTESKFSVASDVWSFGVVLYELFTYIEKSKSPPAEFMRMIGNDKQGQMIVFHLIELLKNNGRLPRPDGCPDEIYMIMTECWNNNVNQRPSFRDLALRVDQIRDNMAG
# Measurement Protocol: JAK2 kinase assay (Caliper mobility shift, LabChip 3000)
# Assay type: biochemical
Some molecules, each annotated with its measured IC50.
Numbers only; they are read as nM.

A selection of reference data follows.
Smiles String | Unit Of Measure | IC50
O=C(c1c(F)cc(-n2ccc3cnc(Nc4ccccc4)nc32)cc1F)N1CCOCC1 | nM | 5.1
Cc1ccc(Nc2ncc3ccn(-c4ccc(S(C)(=O)=O)cc4)c3n2)cc1CN1CCNCC1 | nM | 3.9
Fc1cc(-n2ccc3cnc(Nc4ccc(CN5CCC(F)(F)C5)cc4)nc32)cc(F)c1CN1CCOCC1 | nM | 3.5
CN1CCN(Cc2ccc(Nc3ncc4ccn(-c5cc(F)c(CN6CCOCC6)c(F)c5)c4n3)cc2)CC1 | nM | 5.5

Note: attention shifts to another entry.
Look up IC50: `COCc1ccc(Nc2ncc3ccn(-c4ccc(CN5CCOCC5)c(Cl)c4)c3n2)cc1`
7.3
